- Test system: MOLM-13
- method_description: cells
- applied_conditions: Homo sapiens, MOLM-13, 192 h
pIC50: −log10 of the molar value.
readout: pIC50

Nc1cccc(/C=C/c2ccc(O)c(-c3ccccn3)c2)c1 = 4.90
N/C(=N\O)c1cccc(/C=C/c2ccnc(-c3cc(F)ccc3O)c2)c1 = 5.08

P. N/C(=N\O)c1cccc(/C=C/c2ccnc(-c3ccccc3O)c2)c1
Q. N/C(=N\O)c1cccc(/C=C/c2ccc(O)c(-c3ccccn3)c2)c1
# input Of P and Q , which carries the smaller reported pIC50 figure? Mark your selection by writing its label.
# output Q
(Q: 4.65, P: 5.04)
